Where these numbers come from: PubChem BioAssay (NCI)

test system: HCT-15 colon; assay: NCI tumour cell line growth inhibition, 48 h

molecule: CCC1=CCN(c2cc(C)ccn2)OC1c1ccccc1 (stereo unspecified)
TGI: > 100 µM

molecule: CN=C(Nc1ccc(OC)c2ccccc12)SC
TGI: > 10 µM

molecule: COc1ccc(/C=C(\NC(=O)c2ccccc2)c2nc3ccccc3[nH]2)cc1OC
TGI: > 100 µM

molecule: O=C(N/N=C\c1cccc2ccccc12)Nc1ccccc1
TGI: > 100 µM

molecule: C/C(=N\NC(=S)N1CCC(N2CCCCC2)CC1)c1ccccn1
TGI: 6.13 µM

molecule: C=C1C(=O)O[C@H]2[C@H]1CC/C(COC(=O)NCc1ccc(Cn3c(=O)sn(CCCCC)c3=O)cc1)=C\CC[C@@]1(C)O[C@@H]21
TGI: 3.23 µM

molecule: C/C(=C(/c1ccccc1)c1ccc(OCC(O)CNCCN2CCOCC2)cc1)c1ccccc1 (stereo unspecified)
TGI: 5.4 µM

molecule: Cc1nc2ccc(S(=O)(=O)NS(=O)(=O)c3ccc(-c4ccccc4)cc3)cc2c(=O)n1NS(=O)(=O)c1ccc(-c2ccccc2)cc1
TGI: > 100 µM

molecule: C=C1C(=O)C23[C@H](O)C1CC[C@H]2[C@]12COC3(O)[C@@H](O)[C@@H]1C(C)(C)CC[C@@H]2O
TGI: 15.9 µM

molecule: COC(=O)CCC1(CCC(=O)OC)CCCCCCC(CCC(=O)OC)(CCC(=O)OC)C(=O)C1=O
TGI: > 100 µM

molecule: CCOC(=O)NC(Nc1cc(Cl)ccc1OC)(C(F)(F)F)C(F)(F)F
TGI: > 100 µM

molecule: Clc1ccc2c(NCCCCN3OC3c3ccccc3)ccnc2c1 (stereo unspecified)
TGI: 23.5 µM

molecule: O=c1nc2ccc([N+](=O)[O-])cc2[n+]([O-])[nH]1
TGI: > 100 µM

molecule: COc1ccc2c(O)c(S(=O)(=O)c3ccc(C)cc3)c(=O)oc2c1OC
TGI: > 100 µM

molecule: O=c1[nH]nc(-c2ccccc2)n1/N=C/c1ccccc1O
TGI: > 100 µM

molecule: COc1ccc(O)c(C(=O)CCC(=O)O)c1
TGI: > 100 µM

molecule: Nc1c(C(=O)c2cccc(C#CCN3CCCCC3)c2)cnn1-c1ccc(F)cc1
TGI: > 25 µM

molecule: CC12CC(=O)Nc3ccccc3N1C(c1ccccc1)=NO2 (stereo unspecified)
TGI: > 100 µM

molecule: CC(C)(C)NCC(O)COc1c(Br)c(Br)c(Br)c2c1OC(C)(C)C2 (stereo unspecified)
TGI: 3.4 µM

molecule: O=C1C[C@@]23CCC4(CC2CCC[C@H]3O1)OCCO4 (stereo partly specified)
TGI: > 100 µM

molecule: C=C1C[C@@H](O)[C@@H](Br)C(C)(C)[C@@]12C=CC(=O)CC2
TGI: > 100 µM
